- Test system: 624824-186-R-J2-PDC multicell spheroids, viability;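 further: spheroids exposed to agents for 7 days before viability read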
- Procedure Text: Anticancer human tumor 624824-186-R-J2-PDC patient-derived colon adenocarcinoma cell line growth inhibition [PI3K]
- Condition Notes: curve of compound
Property Name: IC50

>  <Molecule>
CC(=O)c1c(C)c2cnc(Nc3ccc(N4CCNCC4)cn3)nc2n(C2CCCC2)c1=O

>  <Observed Value>
> 0.1 µM

$$$$
>  <Molecule>
CC(Cn1ccc(-c2ccc(C#N)c(Cl)c2)n1)NC(=O)c1cc(C(C)O)[nH]n1 (centres undefined)

>  <Observed Value>
> 10 µM

$$$$
>  <Molecule>
C=CC(=O)N1CCN(c2nc(=O)n(-c3c(C)ccnc3C(C)C)c3nc(-c4c(O)cccc4F)c(F)cc23)C(C)C1 (centres undefined)

>  <Observed Value>
> 10 µM

$$$$
>  <Molecule>
Cn1ncc(Cl)c1-c1cc(C(=O)NC(CN)Cc2cccc(F)c2)sc1Cl (centres undefined)

>  <Observed Value>
> 10 µM

$$$$
>  <Molecule>
C#Cc1c(F)ccc2cc(O)cc(-c3ncc4c(N5CC6CCC(C5)N6)nc(OCC56CCCN5CC(F)C6)nc4c3F)c12 (centres undefined)

>  <Observed Value>
> 10 µM

$$$$
>  <Molecule>
Cn1cnc2c(F)c(Nc3ccc(Br)cc3Cl)c(C(=O)NOCCO)cc21

>  <Observed Value>
> 3 µM

$$$$
>  <Molecule>
CCN1CCN(Cc2ccc(Nc3ncc(F)c(-c4cc(F)c5nc(C)n(C(C)C)c5c4)n3)nc2)CC1

>  <Observed Value>
> 1 µM

$$$$
>  <Molecule>
CC(C)NCC(C(=O)N1CCN(c2ncnc3c2C(C)CC3O)CC1)c1ccc(Cl)cc1 (centres undefined)

>  <Observed Value>
> 10 µM

$$$$
>  <Molecule>
CNC(=O)c1ccc(N2C(=S)N(c3ccc(C#N)c(C(F)(F)F)c3)C(=O)C2(C)C)cc1F

>  <Observed Value>
> 10 µM

$$$$

src = PubChem BioAssay AID1963975
